Target or test system: Recombinant human TPH1 (MBP tagged) (Homo sapiens, UniProt P17752)
Construct: cloning full length human TPH1 cDNA in to a bacterial pMAL-c5E expression vector; made in house; host or cells: E. coli BL21 (DE3)
Sequence (P17752 whole entry): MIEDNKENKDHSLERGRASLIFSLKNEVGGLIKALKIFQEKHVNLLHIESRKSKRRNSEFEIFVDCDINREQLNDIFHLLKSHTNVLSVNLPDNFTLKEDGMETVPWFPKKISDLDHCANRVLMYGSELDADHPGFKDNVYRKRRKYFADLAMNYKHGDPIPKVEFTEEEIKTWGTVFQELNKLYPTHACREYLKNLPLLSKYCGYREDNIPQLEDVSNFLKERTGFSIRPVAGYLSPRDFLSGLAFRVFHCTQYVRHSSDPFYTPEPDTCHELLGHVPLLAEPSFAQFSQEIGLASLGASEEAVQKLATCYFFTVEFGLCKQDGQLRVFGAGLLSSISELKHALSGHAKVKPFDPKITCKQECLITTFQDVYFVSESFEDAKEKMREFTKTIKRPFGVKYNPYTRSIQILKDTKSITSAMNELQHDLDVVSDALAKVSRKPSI
Protocol: TPH1 in vitro inhibition assay (kinetic fluorescence)
Type: biochemical
Details: read-out: TPH1 Range (TPH1 inhibition IC50)
pIC50: −log10 of the molar value.
pIC50 values, listed per item

- Molecule: "Cc1c2ccc(-c3ccc([C@@H](Oc4cc(N5CCC6(CC5)CN[C@H](C(=O)O)C6)nc(N)n4)C(F)(F)F)cc3)cc2nn1C [Example 55bb]"
  Target or test system: "Recombinant human TPH1 (MBP tagged) (Homo sapiens, UniProt P17752)"
  pIC50: "> 7.30"
- Molecule: "Nc1nc(O[C@H](c2ccc(-c3ccc4[nH]c(=O)oc4c3)cc2)C(F)(F)F)cc(N2CCC3(CC2)CN[C@H](C(=O)O)C3)n1 [Example 55ab]"
  Target or test system: "Recombinant human TPH1 (MBP tagged) (Homo sapiens, UniProt P17752)"
  pIC50: "6.52 to 7.30"
- Molecule: "Nc1nc(O[C@H](c2ccc(-c3ccc4c(c3)COC4=O)cc2)C(F)(F)F)cc(N2CCC3(CC2)CN[C@H](C(=O)O)C3)n1 [Example 55s]"
  Target or test system: "Recombinant human TPH1 (MBP tagged) (Homo sapiens, UniProt P17752)"
  pIC50: "> 7.30"

---

Target or test system: Recombinant human TPH1 (MBP tagged) (Homo sapiens)
Construct: cloning full length human TPH1 cDNA in to a bacterial pMAL-c5E expression vector; made in house; host or cells: E. coli BL21 (DE3)
Protocol: TPH1 in vitro inhibition assay (kinetic fluorescence)
Type: biochemical
Details: read-out: TPH1 Range (TPH1 inhibition IC50)
pIC50: −log10 of the molar value.
Result type: pIC50

- Molecule: "Cc1ccn(-c2cc(C(=O)OCC(C)C)ccc2[C@@H](Oc2cc(N3CCC4(CC3)CN[C@H](C(=O)O)C4)nc(N)n2)C(F)(F)F)n1 [Example 18e]"
  Reported value: "> 7.30"
- Molecule: "Cc1ccn(-c2cc(C3=CCNCC3)ccc2[C@@H](Oc2cc(N3CCC4(CC3)CN[C@H](C(=O)O)C4)nc(N)n2)C(F)(F)F)n1"
  Reported value: "6.52 to 7.30"
- Molecule: "COc1cc(-c2ccc([C@@H](Oc3cc(N4CCC5(CC4)CN[C@H](C(=O)O)C5)nc(N)n3)C(F)(F)F)cc2)cc(C(F)(F)F)c1 [Example 55z]"
  Reported value: "6.52 to 7.30"
- Molecule: "Nc1nc(O[C@H](c2ccc(-c3ccc4ncccc4c3)cc2)C(F)(F)F)cc(N2CCC3(CC2)CN[C@H](C(=O)O)C3)n1 [Example 55bg]"
  Reported value: "> 7.30"
- Molecule: "CCCOC(=O)c1ccc([C@@H](Oc2cc(N3CCC4(CC3)CN[C@H](C(=O)O)C4)nc(N)n2)C(F)(F)F)c(-n2ccc(C)n2)c1 [Example 18b]"
  Reported value: "> 7.30"
- Molecule: "Cc1ccc(-c2ccc([C@@H](Oc3cc(N4CCC5(CC4)CN[C@H](C(=O)O)C5)nc(N)n3)C(F)(F)F)cc2)cc1 [Example 55cw]"
  Reported value: "5.52 to 6.52"
